assay: Volume of distribution at steady state in Wistar Han rat at 2.9 mg/kg, po or 2.1 mg/kg, iv measured upto 24 hrs by LC-MS/MS analysis; type: ADME, organism-based; settings: in vivo, read-out: Vdss
PARAMETER: Vd (L/kg)
# unit: L/kg | format: bare number

*Q* Requested read-out: Vd. Entry: C[C@H]1C(=O)N(C)C=C(c2cn[nH]c2)c2cc([C@@H](O)CO)ccc21
*A* 1.5

* * *

test: Artificial membrane permeability of the compound; type: ADME; settings: PAMPA; read-out: permeability
Classify by measured Papp: class 1 if it is equal to or exceeds 40 ×10⁻⁶ cm/s, class 0 if it is smaller.

>>> df
                                   compound  category_label
0  CCS(=O)(=O)c1ccc2c(c1)C(c1ccncc1)=CN(C)C(=O)C2C (racemic)         class 0

*Q* Does the reported Papp for CCS(=O)(=O)c1ccc2c(c1)C(C)=CN(C)C(=O)[C@@H]2C fall at or above the 40 ×10⁻⁶ cm/s mark?
*A* class 0

*Q* Determine whether this compound has Papp no lower than 40 ×10⁻⁶ cm/s: CCS(=O)(=O)c1ccc2c(c1)C(C(N)=O)=CN(C)C(=O)[C@@H]2C
*A* class 0

*Q* hey, is Papp for this one >= 40 ×10⁻⁶ cm/s? CCc1ccc2c(c1)C=CN(C)C(=O)[C@@H]2C
*A* class 1

*Q* Exam item: decide whether the reported Papp for C[C@H]1C(=O)N(C)C=C(c2cnn(C)c2)c2cc(C(CO)CO)ccc21 is at least 40 ×10⁻⁶ cm/s.
*A* class 0

* * *

# reported chromatographic logD; entries follow
test: Lipophilicity, logD of compound at pH 7.4 by Chromatography; format: physicochemical; details: buffer
// return just the number, without any unit appended

*Q* Look up chromatographic logD for this compound: CCS(=O)(=O)c1ccc2c(c1)C(C(N)=O)=CN(C)C(=O)[C@@H]2C
*A* 1.1

*Q* Form field: reported chromatographic logD of COc1cc2c(cc1OC)CC(=O)N(C)C=C2
*A* 2.6

*Q* Looking for the measured chromatographic logD of C[C@H]1C(=O)N(C)C=C(c2cn[nH]c2)c2cc([C@H](O)CO)ccc21 , can you help?
*A* 0.8

*Q* Name the recorded chromatographic logD for CCS(=O)(=O)c1ccc2c(c1)C(c1cnn(C)c1)=CN(C)C(=O)[C@@H]2C .
*A* 2.8

*Q* Given the compound CCOc1ccc2c(c1)C(c1cnn(C)c1)=CN(C)C(=O)[C@@H]2C , what is its reported chromatographic logD?
*A* 4.1

*Q* Give its chromatographic logD value. Item: C[C@H]1C(=O)N(C)C=Cc2cc(OC(CO)CO)ccc21
*A* 1.3

*Q* So what does the record say about chromatographic logD for COc1cc2c(cc1OC)[C@H](C)C(=O)N(C)CC2 ?
*A* 2.5

* * *

Listed here are compounds together with their documented solubility kinetic.
assay: Solubility of the compound in saline by CLND method; assay type: physicochemical

Observe how each entry below is paired with its result.
>>> df
                                   compound           parameter  measurement
0  CCS(=O)(=O)c1ccc2c(c1)C(c1ccccc1)=CN(C)C(=O)C2C (racemic)  solubility kinetic  ≥ 146 µg/mL
1  C[C@H]1C(=O)N(C)C=C(c2cnn(C)c2)c2cc(C(CO)CO)ccc21  solubility kinetic  ≥ 208 µg/mL
2  CCOc1ccc2c(c1)C(c1c[nH]c(C)n1)=CN(C)C(=O)[C@@H]2C  solubility kinetic  ≥ 135 µg/mL
3         C[C@H]1C(=O)N(C)C=Cc2cc(CCO)ccc21  solubility kinetic  ≥ 108 µg/mL

*Q* GET /values?readout=solubility kinetic&item= CCOc1ccc2c(c1)C(c1c[nH]cn1)=CN(C)C(=O)[C@@H]2C
*A* ≥ 131 µg/mL

*Q* Recorded solubility kinetic for C[C@H]1C(=O)N(C)C=Cc2cc(CC3CCOCC3)ccc21 , please?
*A* ≥ 111 µg/mL

*Q* Suppose we examine the compound C[C@H]1C(=O)N(C)C=Cc2cc(CN3CCCC3)ccc21 ; what solubility kinetic value has been reported?
*A* ≥ 97 µg/mL

*Q* Could you share which solubility kinetic value was measured for CCOc1ccc2c(c1)C(c1cc[nH]n1)=CN(C)C(=O)C2C (racemic) ?
*A* ≥ 99 µg/mL

*Q* Query (compound): CCS(=O)(=O)c1ccc2c(c1)C(C(N)=O)=CN(C)C(=O)[C@@H]2C ; field requested: solubility kinetic
*A* 82 µg/mL

*Q* I have this compound here, C[C@H]1C(=O)N(C)C=Cc2cc(OC(CO)CO)ccc21 , and I need its recorded solubility kinetic.
*A* ≥ 142 µg/mL

*Q* What does the record list as solubility kinetic for Cc1nc(C2=CN(C)C(=O)[C@H](C)c3ccc(OCCO)cc32)c[nH]1 ?
*A* ≥ 185 µg/mL

*Q* Returns the measured solubility kinetic for the input compound. Input: C[C@H]1C(=O)N(C)C=Cc2cc(C(O)CO)ccc21 (stereo partly specified)
*A* ≥ 101 µg/mL

*Q* Reported solubility kinetic for C[C@H]1C(=O)N(C)C=Cc2cc(C(CO)CO)ccc21 : what is it?
*A* ≥ 209 µg/mL

*Q* solubility kinetic lookup needed for COCCOc1ccc2c(c1)C=CN(C)C(=O)[C@@H]2C , thanks.
*A* ≥ 128 µg/mL

*Q* Please give the measured solubility kinetic for this compound: CCOc1ccc2c(c1)C(n1ccnc1)=CN(C)C(=O)C2C (racemic)
*A* ≥ 65 µg/mL

*Q* Fill in: solubility kinetic of CCOc1ccc2c(c1)C(c1cnn(C)c1)=CN(C)C(=O)[C@@H]2C is ___
*A* 143 µg/mL

*Q* Need solubility kinetic, item CCOc1ccc2c(c1)C(c1cn(C)cn1)=CN(C)C(=O)[C@@H]2C
*A* 117 µg/mL

*Q* Which solubility kinetic is listed for C[C@H]1C(=O)N(C)C=Cc2cc(CN3CCOCC3)ccc21 ?
*A* ≥ 142 µg/mL

*Q* Which solubility kinetic value is on record for CCS(=O)(=O)c1ccc2c(c1)C(c1ccncc1)=CN(C)C(=O)C2C (racemic) ?
*A* 128 µg/mL

*Q* Given the compound CCOc1ccc2c(c1)C=CN(C)C(=O)C2C (racemic) , what is its reported solubility kinetic?
*A* ≥ 120 µg/mL

*Q* Reported solubility kinetic, compound COc1cc2c(cc1OC)[C@@H](C)C(=O)N(C)C=C2 : ____
*A* ≥ 139 µg/mL
